Data origin: patent US11026942B2

Measured Aβ43 values are reported for all entries that follow.
Tested on: Aβ43
experiment-description: Aβ43 in FAD1 iPS cell-derived nerve cells (secondary screening)
Assay type: cell-based, human
Respond numerically, and do not add a unit to the figure.

• CN(C)CCCN1c2ccccc2CCc2ccccc21 [compound 17, IMIPRAMINE] = 1.27
• CCN(CC)C(C)CN1c2ccccc2Sc2ccccc21 (centres unmarked) [compound 15, ETHOPROPAZINE] = 0.84
• Nc1nc(/C(=C/CC(=O)O)C(=O)N[C@@H]2C(=O)N3C(C(=O)O)=CCS[C@H]23)cs1 [compound 62, CEFTIBUTEN] = 0.83
• CN1Cc2c(N)cccc2C(c2ccccc2)C1 (centres unmarked) [compound 28, NOMIFENSINE] = 0.85

Here is another molecule to look at.
Entry CCc1cccc2c3c([nH]c12)C(CC)(CC(=O)O)OCC3 (centres unmarked) [compound 26, ETODOLAC] , Aβ43 reported as 1.55

###

Each item that follows carries a reported Aβ43.
Tested on: Aβ43
experiment-description: Aβ43 in FAD1 iPS cell-derived nerve cells (secondary screening)
Assay type: cell-based, human
Parameters: scale not given here
Please respond with just the number, no unit label.

• CCCc1nc(C(C)(C)O)c(C(=O)OCc2oc(=O)oc2C)n1Cc1ccc(-c2ccccc2-c2nn[nH]n2)cc1 [compound 61, OLMESARTAN MEDOXOMIL] = 0.9
• CCCCOc1ccc(C(=O)CCN2CCCCC2)cc1 [compound 55, DYCLONINE] = 0.9
• CCCCC(=O)N(Cc1ccc(-c2ccccc2-c2nn[nH]n2)cc1)[C@H](C(=O)O)C(C)C [compound 48] = 1

The compound CC(C)[N+](C)(CCC(C(N)=O)(c1ccccc1)c1ccccc1)C(C)C [compound 19, ISOPROPAMIDE] showed Aβ43 equal to 0.95

###

Measured Aβ43 accompanies every entry in the list below.
Test system: Aβ43
experiment-description: Aβ43 in FAD1 iPS cell-derived nerve cells (secondary screening)
Type: cell-based, human
Set-up: scale not given here
Just the number, please, no unit after it.

Recorded results for 3 compounds are shown here.
* Nc1ccc(S(=O)(=O)c2ccc(N)cc2)cc1 | 0.8
* CN[C@H](CC(C)C)C(=O)N[C@H]1C(=O)N[C@@H](CC(N)=O)C(=O)N[C@H]2C(=O)N[C@H]3C(=O)N[C@H](C(=O)N[C@H](C(=O)O)c4cc(O)cc(O)c4-c4cc3ccc4O)[C@H](O)c3ccc(c(Cl)c3)Oc3cc2cc(c3O[C@@H]2O[C@H](CO)[C@@H](O)[C@H](O)[C@H]2O[C@H]2C[C@](C)(N)[C@H](O)[C@H](C)O2)Oc2ccc(cc2Cl)[C@H]1O | 1.2
* O=C(O)C(O)[C@H](O)[C@@H](O)[C@H](O)[C@H](O)CO (some centres unmarked) | 1.32

// Aβ43 (Aβ43) for c1ccc2c(c1)OCC(C1=NCCN1)O2 (centres unmarked) = 0.97

Observed Aβ43, Aβ43, CCOc1ccc(NC(=O)CC(C)O)cc1 (centres unmarked) : 0.85

Value sought: Aβ43, system Aβ43, item CC1(C)O[C@@H]2[C@@H](CO[C@@]3(COS(N)(=O)=O)OC(C)(C)O[C@@H]23)O1 [compound 100, TOPIRAMATE] . Result: 1.02

Summary line: "N[C@@H]1CONC1=O" , Aβ43, reported Aβ43 = 0.85

Entry "O=C(O)CCNC(=O)c1ccccc1" ; assay system Aβ43; Aβ43 recorded at 0.82
